experiment notes: Cytotoxicity, MTT assay in uninfected A549
Assay type: cell-based
test context: human, uninfected A549 cells, with Influenza A IF assay, not converted
quantity measured: CC50 at 24 h (µM)
Output spec: scalar in µM, unitless text.

Tell me the measured CC50 at 24 h of Cc1c(-c2ccc(O)cc2)n(Cc2ccc(OCCN3CCCCC3)cc2)c2ccc(O)cc12 [Pipendoxifene] , please.
13.7

* * *

experiment notes: Cytotoxicity, neutral red, Vero E6
Format: cell-based
test context: African green monkey, Vero E6 cells (uninfected toxicity wells), with CPE assay, not converted for FBS
quantity measured: CC50 (µM)
Value expressed in µM; do not type the unit.

Sample Cc1c(-c2ccc(O)cc2)n(Cc2ccc(OCCN3CCCCC3)cc2)c2ccc(O)cc12 [Pipendoxifene] — what was its CC50?
3.2

* * *

Test system: SARS-CoV-2 USA-WA1/2020
experiment notes: SARS-CoV-2 immunofluorescence (IF) assay, HeLa-ACE2 (Method 1)
Assay type: cell-based
test context: Severe acute respiratory syndrome coronavirus 2, HeLa-ACE2, SARS-CoV-2 USA-WA1/2020, 2% FBS
quantity measured: EC50 (nM)
Report the figure in nM without appending any unit label.

Can you share its EC50? I mean this molecule: Cc1c(-c2ccc(O)cc2)n(Cc2ccc(OCCN3CCCCC3)cc2)c2ccc(O)cc12 [Pipendoxifene]
675

* * *

The compounds listed here are annotated with their CC50 at 6 days.
experiment notes: Cytotoxicity, XTT, MRC-5
test context: human

| compound | CC50 at 6 days |
| --- | --- |
| CCC(CC)COC(=O)[C@H](C)N[P@](=O)(OC[C@H]1O[C@@](C#N)(c2ccc3c(N)ncnn23)[C@H](O)[C@@H]1O)Oc1ccccc1 [Remdesivir, reference compound] | > 1000 nM |
| Fc1ccc(-c2cc3sccc3n2Cc2ccc(OCCN3CCCCC3)cc2)cc1 | 1530 nM |
| COc1ccc(-c2c(Cc3ccc(OCCC4CCCCC4)cc3)c3ccc(OC)cc3n2C)cc1 | > 5000 nM |

Value lookup for CC50 at 6 days; key = O=C(O)c1ccc(-c2c(CC3CCCC3)c3ccc(F)cc3n2Cc2ccc(OCCC3CCCCC3)cc2)cc1
2470 nM

Query (compound): Cc1c(-c2ccc(O)cc2)n(Cc2ccc(OCCC3CCCCC3)cc2)c2ccc(O)cc12 ; field requested: CC50 at 6 days
2700 nM

Entry Fc1ccc(-c2cc3sccc3n2Cc2ccc(OCCC3CCCCC3)cc2)cc1 : reported CC50 at 6 days = ?
> 5000 nM

Given the compound Cc1c(-c2ccc(O)cc2)n(Cc2ccc(OCCN3CCCCC3)cc2)c2ccc(O)cc12 [Pipendoxifene] , what is its reported CC50 at 6 days?
> 1000 nM

Any idea what its CC50 at 6 days is? The compound is Nc1cccc2nc(-c3ccc(F)cc3)n(Cc3ccc(OCCN4CCCCC4)cc3)c12
> 5000 nM
